Values were extracted from paper PMC5540273.

System: CASK
CONDITION NOTES: concentration: 1 μM, replicates: in singlicate; n = 1;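 note: KINOMEscan kinase panel screen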
Entry flag: True if %Inh reaches 20%; False if it does not.

Known results for molecules:
| MOLECULE | ASSAYED SYSTEM | CLASS LABEL |
| --- | --- | --- |
| Oc1cc(Nc2ccnc3cc(I)ccc23)ccc1F | CASK | False |
| Cl.Cl.NCC(C(=O)Nc1cc(Br)c(-c2ccnc3[nH]ccc23)s1)c1ccccc1 (centres unmarked) | CASK | True |
| Cc1cccc(Nc2nc(N[C@H]3CCNC3)ncc2C(N)=O)c1.Cl | CASK | False |

query: Does COC(=O)Nc1nc2cc(Oc3ccc(NC(=O)Nc4cc(C(F)(F)F)ccc4F)cn3)ccc2[nH]1.Cl.Cl have a reported %Inh of at least 20%?
result: False

query: Say whether COc1cccc(-c2ccc3c(NC(=O)C4CC4)n[nH]c3n2)c1 shows %Inh of 20% or more.
result: True

query: Confirm if %Inh reported for the molecule COc1cc(Nc2nccc(-c3c(-c4cccc(NC(=O)c5c(F)cccc5F)c4)nn4ccccc34)n2)cc(OC)c1OC is 20% or above.
result: False

query: Check this molecule for %Inh at or above 20%: CN(c1ccc(NC(=O)Nc2cc(C(F)(F)F)ccc2F)cc1)c1ccnc(Nc2ccc(S(N)(=O)=O)cc2)n1
result: True

query: Determine whether this molecule has %Inh no lower than 20%: CSc1cccc2c(-c3ccncn3)c(-c3ccc(F)cc3)nn12
result: True

---

Exercise: state measured %Inh for each of the molecules provided.
Tested on: FLT3
CONDITION NOTES: concentration: 1 μM, replicates: in singlicate; n = 1
Numbers only, in %.

Worked cases, %Inh given:
| MOLECULE | %Inh (%) |
| --- | --- |
| Cc1ccc(C(=O)N2CC[C@@H](O)C2)cc1-n1c(C)cc(OCc2ccc(F)cc2F)c(Br)c1=O | 14 |
| Cn1cc(-c2ccc3c(c2)CCN3C(=O)Cc2cccc(Cl)c2)c2c(N)ncnc21 [GSK2606590] | 91.8 |
| c1ccc(-c2n[nH]cc2Nc2ccnc3ccccc23)nc1 [GW694077] | 12 |
| COc1ccc(CNC(=O)NC2CCN(c3ccnc(Nc4ccc(F)cc4)n3)CC2)cc1 [GSK1379788] | 0 |
| COc1cc(Nc2ncc3c(C)nc(-c4cc5ccccc5[nH]4)n3n2)cc(OC)c1OC [GW869516] | 96.3 |
| COc1cccc(C(=O)Nc2cccc(Oc3ccc4nc(NC(=O)C5CC5)cn4n3)c2)c1 | 89 |
| Cl.c1ccc(-c2ccc3c(Nc4ccc5[nH]ccc5c4)ccnc3c2)nc1 [GW440138] | 0 |
| O=C(Nc1cccc(-c2nn3ccccc3c2-c2ccnc(Nc3cccc(C(F)(F)F)c3)n2)c1)c1c(F)cccc1F [GSK292658] | 62 |
| CN1CCN(CCCNc2nccc(-c3c(-c4ccc(F)cc4)nn4cc(C(F)(F)F)ccc34)n2)CC1 [GW621581] | 0 |
| O=C(Nc1cccc(Oc2ccc3nc(NC(=O)C4CC4)cn3n2)c1)c1ccccc1C(F)(F)F | 20 |

List %Inh for every entry below, keeping the order given.
1. CN(C)Cc1ccc(-c2ccc3c(Nc4ccc(Oc5ccccn5)cc4)ccnc3c2)o1 [GW567148]
2. O=C(Nc1cccc(-c2nn3ccccc3c2-c2ccnc(Nc3cccc(F)c3)n2)c1)c1c(F)ccc(F)c1Cl [GSK357952]

result:
95.5
51

---

Answer each item with its documented %Inh.
Tested on: GRK1
CONDITION NOTES: concentration: 1 μM, replicates: in singlicate; n = 1
One number for each entry, in %.

| COMPOUND | UNIT TAG | %Inh |
| --- | --- | --- |
| CC(C)(C)c1ccc2nccc(Nc3cccc(O)c3)c2c1 | % | 9 |

Hi team, please reply with %Inh for each item in this list.
1. CN(C)S(=O)(=O)c1cc(-c2ccc3nccc(-c4cccc(S(N)(=O)=O)c4)c3c2)cnc1N
2. Cl.Cl.NCC(NC(=O)c1cc(-c2ccccc2)c(-c2ccnc3[nH]ccc23)s1)c1ccccc1 (centres unmarked)
3. Cl.Cl.NCC(NCc1ccc(-c2ccnc3[nH]ccc23)s1)c1ccccc1 (centres unmarked)
4. O=C(O)C(F)(F)F.O=C(O)C(F)(F)F.O=c1[nH]ccc2nc(N[C@@H]3CCCNC3)nc(Nc3ccc(S(=O)(=O)N4CCOCC4)cc3)c12
5. O=C(NC1CCN(c2ccnc(Nc3ccc(F)cc3)n2)C1)c1cc2ccccc2s1 (centres unmarked)
6. Nc1ncnc2c1nc(-c1ccccc1)n2-c1ccccc1

result:
[5, 9, 50, 96.6, 3, 36]

The compound listed as COc1cccc(C2=C(Nc3ccc(Cl)c(C(=O)O)c3)C(=O)NC2=O)c1 shows %Inh equal to 100

---

System: JAK1(JH1domain-catalytic)
CONDITION NOTES: concentration: 1 μM, replicates: in singlicate; n = 1
Give measured %Inh for each item. Keep answers brief.
Give bare numbers, in %.

| MOLECULE | %Inh [%] |
| --- | --- |
| Cl.c1ccc(-c2ccc3c(Nc4ccc5[nH]ncc5c4)ccnc3c2)nc1 | 26 |
| c1ccc(-c2n[nH]cc2Nc2ccnc3ccccc23)nc1 | 0 |
| Fc1ccc(-c2ncn(C3CCNCC3)c2-c2ccnc(Oc3ccc(-c4ccccc4)cc3)n2)cc1 | 10 |
| FC(F)(F)c1ccc(/C=C/c2cncnc2Nc2ccc3[nH]c(Cc4ccccc4)nc3c2)cc1 | 10 |
| Cc1cccc(NC(=O)Nc2ccc(Oc3ncnc4ccn(C)c34)cc2)c1 | 0 |
| Nc1ncc(-c2ccc3nccc(-c4ccncc4)c3c2)cc1S(=O)(=O)N1CCOCC1 | 3 |
| O=C(Nc1cccc(-c2nn3ccccc3c2-c2ccnc(Nc3cccc(C(F)(F)F)c3)n2)c1)c1c(F)cccc1F | 0 |
| NCCCC(NC(=O)c1cc(Br)c(-c2ccnc3[nH]ccc23)s1)c1ccccc1.O=C(O)C(F)(F)F.O=C(O)C(F)(F)F (stereo not drawn) | 72 |
| Cl.c1ccc(-c2ccc3c(Nc4ccc5[nH]ccc5c4)ccnc3c2)nc1 | 12 |
| O=C(Nc1n[nH]c2nc(-c3ccc(O)cc3)ccc12)C1CC1 | 6 |

Batch: %Inh for all items listed.
1. CCn1c(-c2nonc2N)nc2c(C#CC(C)(C)O)ncc(OCCCCN)c21.O=C(O)C(F)(F)F.O=C(O)C(F)(F)F
2. Nc1ncnc2c1nc(-c1ccccc1)n2-c1ccccc1
3. O=c1[nH]cc(-c2ccc(N3CCOCC3)cc2)c2sc(-c3cn[nH]c3)cc12
4. Cc1ccc(C(=O)Nc2ccc(Nc3ccnc4cc(-c5nccs5)ccc34)cc2O)cc1.Cl
5. Cc1ccc(S(=O)(=O)Nc2ccc(Nc3nccc(Nc4cccc5[nH]ncc45)n3)cc2)cc1
6. CN(c1ccc(NC(=O)Nc2cc(C(F)(F)F)ccc2F)cc1)c1ccnc(Nc2ccc(S(N)(=O)=O)cc2)n1

result:
1. 21
2. 0
3. 24
4. 0
5. 44
6. 95.3

---

Task for the reader: assign each of the following molecules its reported %Inh.
Test system: CHEK2
CONDITION NOTES: concentration: 1 μM, replicates: in singlicate; n = 1
Answers are plain numbers, in %.

| STRUCTURE NOTATION | REPORTED RESULT |
| --- | --- |
| COc1ccc(CNC(=O)NC2CCN(c3ccnc(Nc4ccc(F)cc4)n3)CC2)cc1 | 34 |
| Cc1ccc(F)c(C(=O)Nc2cccc(-c3nn4ccccc4c3-c3ccnc(Nc4cccc(F)c4)n3)c2)c1F | 0 |
| Cc1ccc(S(=O)(=O)Nc2ccc(Nc3nccc(Nc4cccc5[nH]ncc45)n3)cc2)cc1 | 0 |
| CNC(=O)c1ccccc1Nc1nc(Nc2ccc(N3CCOCC3)cc2)ncc1Cl.Cl | 91.3 |
| O=C(Nc1cccc(-c2nn3ccccc3c2-c2ccnc(Nc3cccc(F)c3)n2)c1)c1c(F)ccc(F)c1Cl | 0 |

What the record says about c1ccc(-c2cnc3nccnn23)cc1 : %Inh is 0

---

Test system: CIT
CONDITION NOTES: concentration: 1 μM, replicates: in singlicate; n = 1
RECORDED ENDPOINT: %Inh (%)
Answers are plain numbers, in %.

| STRUCTURE NOTATION | REPORTED RESULT |
| --- | --- |
| CC(C)c1nc(-c2cccc(NS(=O)(=O)c3c(F)cccc3F)c2F)c(-c2ccnc(Nc3ccc(N4CCOCC4)nc3)n2)s1 | 95.1 |
| CNC(=O)c1ccccc1Nc1nc(Nc2ccc(N3CCOCC3)cc2)ncc1Cl.Cl | 26 |
| Cc1cccc(Nc2nc(N[C@H]3CCNC3)ncc2C(N)=O)c1.Cl | 76 |

Note to self: %Inh recorded for O=C(Nc1cccc(-c2nn3ccccc3c2-c2ccnc(Nc3cccc(F)c3)n2)c1)c1c(F)ccc(F)c1Cl was 7
